Entry source: paper PMC11328599

- Test method notes: physchem
- Format: physicochemical
- Conditions: 25 °C, pH 9.1, aqueous buffer, thermodynamic from solid
Attribute measured: solubility at 4 h (µM)
Reply with just the number (in µM).

Q) Bench note: what solubility at 4 h did `Nc1nc2[nH]c(SCC(=O)Nc3cccc4c3CCCC4)nc2c(=O)[nH]1` show?
A) 37.6

* * *

- Test method notes: in vitro
- Type: cell-based
- Conditions: human, % of cell viability ± SEM
Attribute measured: viability at 72 h, 87.5 µM

Q) Param item = `Nc1nc2[nH]c(SCC(=O)Nc3cccc4c3CCCC4)nc2c(=O)[nH]1` ; retrieve measured viability at 72 h, 87.5 µM.
A) 97%

* * *

- Test method notes: in vitro
- Assay type: cell-based
- Conditions: human, % of cell viability ± SEM
Attribute measured: viability at 72 h, 75 µM (%)
The answer is to be given in %; state only the numeric part.

Q) Recorded viability at 72 h, 75 µM for Nc1nc2[nH]c(SCC(=O)Nc3cccc4c3CCCC4)nc2c(=O)[nH]1 [Compound 3e] , please?
A) 108

* * *

- Test method notes: in vitro
- Format: cell-based
- Conditions: human, % of cell viability ± SEM
Attribute measured: viability at 72 h, 100 µM (%)
Field format: number, assumed %, no unit text.

Q) Name the recorded viability at 72 h, 100 µM for `Nc1nc2[nH]c(SCC(=O)Nc3cccc4c3CCCC4)nc2c(=O)[nH]1` .
A) 96

* * *

- Test method notes: in vitro
- Format: cell-based
- Conditions: African green monkey, % of cell viability ± SEM
Attribute measured: viability at 72 h, 75 µM (%)
Express it in %; write the number only.

Q) Item under review: `Nc1nc2[nH]c(SCC(=O)Nc3cccc4c3CCCC4)nc2c(=O)[nH]1` . Reported viability at 72 h, 75 µM?
A) 115

* * *

Attribute measured: melting point

Compound	Attribute measured	Observed value
Nc1nc2[nH]c(SCC(=O)NC3CCCCCC3)nc2c(=O)[nH]1	melting point	292 to 294 °C (dec.)
C[C@@H]1[C@H](NC(=O)CSc2nc3c(=O)[nH]c(N)nc3[nH]2)C[C@H]2C[C@@H]1C2(C)C	melting point	289 to 291 °C (dec.)
C[C@H](NC(=O)CSc1nc2c(=O)[nH]c(N)nc2[nH]1)C1CCCCC1	melting point	294 to 296 °C (dec.)
Nc1nc2[nH]c(SCC(=O)NC3CCC3)nc2c(=O)[nH]1	melting point	285 to 287 °C (dec.)
Nc1nc2[nH]c(SCC(=O)NC3CCCC3)nc2c(=O)[nH]1	melting point	280 to 282 °C (dec.)
Nc1nc2[nH]c(SCC(=O)Nc3cccc4c3CCCC4)nc2c(=O)[nH]1	melting point	260 to 261 °C (dec.)
Nc1nc2[nH]c(SCC(=O)Nc3ccc(N4CCOCC4)cc3)nc2c(=O)[nH]1	melting point	326 to 328 °C (dec.)
Nc1nc2[nH]c(SCC(=O)Nc3ccc(C(=O)N4CCCC4)cc3)nc2c(=O)[nH]1	melting point	237 to 239 °C (dec.)

Next compound, please.
Q) Could you share which melting point value was measured for `Nc1nc2[nH]c(SCC(=O)Nc3ccc4c(c3)CCCC4)nc2c(=O)[nH]1` ?
A) 294 to 295 °C (dec.)
